Kindly state % engagement UBR5_C2094 for each of the entries shown.
Target: UBR5_C2094 (Homo sapiens)
Construct: endogenous in cells; host or cells: 22Rv1
Sequence (O95071 whole entry): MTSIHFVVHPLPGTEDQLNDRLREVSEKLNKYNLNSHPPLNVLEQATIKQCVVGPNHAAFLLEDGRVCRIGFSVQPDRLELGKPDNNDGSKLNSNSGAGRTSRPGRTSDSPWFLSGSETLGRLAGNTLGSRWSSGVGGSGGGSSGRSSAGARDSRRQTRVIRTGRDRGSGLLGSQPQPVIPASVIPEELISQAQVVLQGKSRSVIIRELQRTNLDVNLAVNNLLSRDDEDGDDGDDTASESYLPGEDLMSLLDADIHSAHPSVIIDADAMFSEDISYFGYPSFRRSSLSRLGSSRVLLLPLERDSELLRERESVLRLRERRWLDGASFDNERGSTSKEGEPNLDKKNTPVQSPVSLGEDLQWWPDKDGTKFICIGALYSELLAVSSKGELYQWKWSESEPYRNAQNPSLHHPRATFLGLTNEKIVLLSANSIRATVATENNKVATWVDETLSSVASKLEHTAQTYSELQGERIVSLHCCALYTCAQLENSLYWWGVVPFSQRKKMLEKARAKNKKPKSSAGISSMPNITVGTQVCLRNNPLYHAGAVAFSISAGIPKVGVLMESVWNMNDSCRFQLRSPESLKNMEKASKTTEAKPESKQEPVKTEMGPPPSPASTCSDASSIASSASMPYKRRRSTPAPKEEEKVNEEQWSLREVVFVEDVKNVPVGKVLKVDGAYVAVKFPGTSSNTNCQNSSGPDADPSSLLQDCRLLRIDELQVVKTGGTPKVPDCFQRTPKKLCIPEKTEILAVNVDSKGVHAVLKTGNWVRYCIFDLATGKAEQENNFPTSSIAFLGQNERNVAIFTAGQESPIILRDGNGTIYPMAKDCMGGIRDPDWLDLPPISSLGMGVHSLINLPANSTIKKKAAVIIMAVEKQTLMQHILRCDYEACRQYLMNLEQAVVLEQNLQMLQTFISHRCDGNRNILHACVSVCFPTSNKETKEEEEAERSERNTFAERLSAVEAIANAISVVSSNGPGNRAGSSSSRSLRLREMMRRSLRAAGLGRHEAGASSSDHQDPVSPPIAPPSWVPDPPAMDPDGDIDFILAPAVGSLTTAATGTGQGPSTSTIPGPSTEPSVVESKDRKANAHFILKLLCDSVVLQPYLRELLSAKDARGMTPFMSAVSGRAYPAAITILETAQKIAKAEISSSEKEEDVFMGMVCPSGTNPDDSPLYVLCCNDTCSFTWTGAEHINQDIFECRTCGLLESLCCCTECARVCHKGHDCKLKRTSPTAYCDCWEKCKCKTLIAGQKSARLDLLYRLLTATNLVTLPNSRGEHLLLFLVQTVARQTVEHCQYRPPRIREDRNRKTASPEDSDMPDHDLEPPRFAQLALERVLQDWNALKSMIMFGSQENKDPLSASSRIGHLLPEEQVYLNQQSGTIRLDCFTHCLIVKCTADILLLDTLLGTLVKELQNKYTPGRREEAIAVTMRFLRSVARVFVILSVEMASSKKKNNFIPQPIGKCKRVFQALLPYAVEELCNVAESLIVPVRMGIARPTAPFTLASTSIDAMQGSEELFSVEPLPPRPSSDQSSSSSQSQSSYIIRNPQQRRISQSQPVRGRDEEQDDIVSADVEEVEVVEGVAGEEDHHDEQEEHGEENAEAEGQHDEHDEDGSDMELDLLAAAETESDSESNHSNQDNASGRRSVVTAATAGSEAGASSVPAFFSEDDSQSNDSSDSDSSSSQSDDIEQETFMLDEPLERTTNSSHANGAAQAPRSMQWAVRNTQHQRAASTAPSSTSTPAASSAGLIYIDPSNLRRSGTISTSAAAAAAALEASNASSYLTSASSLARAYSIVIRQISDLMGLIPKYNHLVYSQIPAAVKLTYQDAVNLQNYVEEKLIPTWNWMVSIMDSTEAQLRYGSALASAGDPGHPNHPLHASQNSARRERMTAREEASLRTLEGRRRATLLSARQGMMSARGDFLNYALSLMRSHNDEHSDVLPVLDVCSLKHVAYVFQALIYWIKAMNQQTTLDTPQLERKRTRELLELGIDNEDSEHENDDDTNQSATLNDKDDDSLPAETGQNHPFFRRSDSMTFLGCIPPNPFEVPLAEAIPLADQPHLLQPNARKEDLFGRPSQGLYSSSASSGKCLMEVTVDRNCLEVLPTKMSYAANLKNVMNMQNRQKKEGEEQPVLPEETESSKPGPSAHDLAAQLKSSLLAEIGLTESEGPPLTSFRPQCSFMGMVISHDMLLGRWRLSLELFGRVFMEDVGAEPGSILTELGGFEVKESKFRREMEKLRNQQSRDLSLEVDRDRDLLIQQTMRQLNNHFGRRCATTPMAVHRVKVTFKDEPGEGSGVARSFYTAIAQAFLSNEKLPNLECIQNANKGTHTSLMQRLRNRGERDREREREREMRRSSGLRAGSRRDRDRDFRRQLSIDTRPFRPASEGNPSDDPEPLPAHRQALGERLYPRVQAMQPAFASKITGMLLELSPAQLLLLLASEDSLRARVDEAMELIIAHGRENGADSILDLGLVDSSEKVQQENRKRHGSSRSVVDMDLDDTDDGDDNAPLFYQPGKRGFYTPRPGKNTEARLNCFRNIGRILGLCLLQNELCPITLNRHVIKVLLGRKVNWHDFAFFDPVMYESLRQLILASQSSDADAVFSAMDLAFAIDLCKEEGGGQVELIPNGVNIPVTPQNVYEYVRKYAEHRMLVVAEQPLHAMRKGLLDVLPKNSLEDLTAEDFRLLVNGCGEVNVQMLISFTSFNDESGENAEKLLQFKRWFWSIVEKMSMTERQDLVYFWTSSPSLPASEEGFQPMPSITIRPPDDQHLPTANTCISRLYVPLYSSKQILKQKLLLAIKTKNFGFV
Assay: IA-DTB cysteine engagement
Format: binding
Conditions: 22Rv1 cells, 20 μM probe, 1 h, relative to DMSO
Answers are plain numbers, in %.

Examples from the recorded data:
# Compound, Observed result
data = [
    ("C=CC(=O)N1C[C@H](c2ccc(Br)cc2)[C@H]1C(=O)Nc1cccc2cccnc12 [MY-3A]", 22.5),
    ("C=CC(=O)N1C[C@H](c2ccc(Br)cc2)[C@@H]1C(=O)Nc1cccc2cccnc12", 40.5),
    ("C=CC(=O)N1C[C@@H](c2ccc(Br)cc2)[C@H]1C(=O)Nc1cccc2cccnc12", 23),
]

Prompt: Query: % engagement UBR5_C2094; subject: C=CC(=O)N1C[C@H](c2ccc(Br)cc2)[C@H]1C(=O)Nc1cccc2cccnc12 [MY-3B]
Response: 81

---

Biological target: LAPTM4A_C20 (Homo sapiens, UniProt Q15012)
Construct: endogenous in cells; host or cells: 22Rv1
Assay: IA-DTB cysteine engagement
Format: binding
Conditions: 22Rv1 cells, 20 μM probe, 1 h, relative to DMSO
Metric name: % engagement LAPTM4A_C20 (%)
Give bare numbers, in %.

Examples from the recorded data:
# Molecule, Assay system, % engagement LAPTM4A_C20 [%]
rows = [
    ("C=CC(=O)N1C[C@H](c2ccc(Br)cc2)[C@H]1C(=O)Nc1cccc2cccnc12 [MY-3B]", "LAPTM4A_C20 (Homo sapiens, UniProt Q15012)", 70.5),
    ("C=CC(=O)N1C[C@H](c2ccc(Br)cc2)[C@@H]1C(=O)Nc1cccc2cccnc12 [MY-1B]", "LAPTM4A_C20 (Homo sapiens, UniProt Q15012)", 55),
    ("C=CC(=O)N1C[C@H](c2ccc(Br)cc2)[C@H]1C(=O)Nc1cccc2cccnc12 [MY-3A]", "LAPTM4A_C20 (Homo sapiens, UniProt Q15012)", 49.5),
]

Let us move to another entry and its % engagement LAPTM4A_C20.
Prompt: Query: % engagement LAPTM4A_C20; subject: C=CC(=O)N1C[C@@H](c2ccc(Br)cc2)[C@H]1C(=O)Nc1cccc2cccnc12 [MY-1A]
Response: 69

---

Target: VWA5B2_C1040 (Homo sapiens, UniProt Q8N398)
Construct: endogenous in cells; host or cells: 22Rv1
Sequence (Q8N398 whole entry): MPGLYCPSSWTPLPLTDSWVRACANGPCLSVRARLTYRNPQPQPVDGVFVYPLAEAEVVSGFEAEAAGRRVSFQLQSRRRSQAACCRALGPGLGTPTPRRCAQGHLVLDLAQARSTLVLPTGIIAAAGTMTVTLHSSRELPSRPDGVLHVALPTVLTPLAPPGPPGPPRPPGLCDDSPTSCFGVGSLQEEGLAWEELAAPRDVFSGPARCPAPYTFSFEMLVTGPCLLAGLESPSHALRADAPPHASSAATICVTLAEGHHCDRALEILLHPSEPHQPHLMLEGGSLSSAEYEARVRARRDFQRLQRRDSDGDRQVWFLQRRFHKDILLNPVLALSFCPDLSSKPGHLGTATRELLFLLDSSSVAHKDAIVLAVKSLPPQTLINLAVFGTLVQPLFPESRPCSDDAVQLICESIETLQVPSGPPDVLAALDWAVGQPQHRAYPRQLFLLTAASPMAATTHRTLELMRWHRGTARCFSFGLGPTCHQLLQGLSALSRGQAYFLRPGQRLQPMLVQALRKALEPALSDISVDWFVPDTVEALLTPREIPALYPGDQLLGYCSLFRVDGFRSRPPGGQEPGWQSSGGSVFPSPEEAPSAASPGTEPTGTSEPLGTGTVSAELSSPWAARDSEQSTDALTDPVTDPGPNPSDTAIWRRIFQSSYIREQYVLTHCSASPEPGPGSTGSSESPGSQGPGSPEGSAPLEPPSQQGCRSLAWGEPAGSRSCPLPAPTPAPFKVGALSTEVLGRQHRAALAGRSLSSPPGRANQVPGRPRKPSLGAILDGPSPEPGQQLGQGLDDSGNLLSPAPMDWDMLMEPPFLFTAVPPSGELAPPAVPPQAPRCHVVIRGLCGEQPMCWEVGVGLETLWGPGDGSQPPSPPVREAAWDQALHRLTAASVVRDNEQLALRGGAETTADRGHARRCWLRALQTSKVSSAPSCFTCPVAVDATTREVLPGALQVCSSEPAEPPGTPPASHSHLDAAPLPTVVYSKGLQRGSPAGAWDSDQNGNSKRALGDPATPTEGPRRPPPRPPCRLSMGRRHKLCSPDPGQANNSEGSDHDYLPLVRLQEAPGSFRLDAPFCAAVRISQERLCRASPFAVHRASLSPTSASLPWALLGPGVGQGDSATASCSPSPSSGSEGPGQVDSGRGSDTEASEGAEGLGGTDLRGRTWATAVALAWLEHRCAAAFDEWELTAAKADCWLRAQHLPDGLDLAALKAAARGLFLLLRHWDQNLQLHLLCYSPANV
Experiment: IA-DTB cysteine engagement
Format: binding
Settings: 22Rv1 cells, 20 μM probe, 1 h, relative to DMSO
Kindly state % engagement VWA5B2_C1040 for each of the entries shown.
One number for each entry, in %.

Examples from the recorded data:
# Compound, Observed result
records = [
    ("C=CC(=O)N1C[C@H](c2ccc(Br)cc2)[C@H]1C(=O)Nc1cccc2cccnc12 [MY-3A]", 51.5),
    ("C=CC(=O)N1C[C@@H](c2ccc(Br)cc2)[C@H]1C(=O)Nc1cccc2cccnc12", 76.5),
    ("C=CC(=O)N1C[C@H](c2ccc(Br)cc2)[C@@H]1C(=O)Nc1cccc2cccnc12", 76.25),
]

Let us move to another entry and its % engagement VWA5B2_C1040.
Prompt: Query: % engagement VWA5B2_C1040; subject: C=CC(=O)N1C[C@H](c2ccc(Br)cc2)[C@H]1C(=O)Nc1cccc2cccnc12 [MY-3B]
Response: 74.25

---

Target: NT5DC2_C504 (Homo sapiens)
Construct: endogenous in cells; host or cells: 22Rv1
Sequence (Q9H857 1-520): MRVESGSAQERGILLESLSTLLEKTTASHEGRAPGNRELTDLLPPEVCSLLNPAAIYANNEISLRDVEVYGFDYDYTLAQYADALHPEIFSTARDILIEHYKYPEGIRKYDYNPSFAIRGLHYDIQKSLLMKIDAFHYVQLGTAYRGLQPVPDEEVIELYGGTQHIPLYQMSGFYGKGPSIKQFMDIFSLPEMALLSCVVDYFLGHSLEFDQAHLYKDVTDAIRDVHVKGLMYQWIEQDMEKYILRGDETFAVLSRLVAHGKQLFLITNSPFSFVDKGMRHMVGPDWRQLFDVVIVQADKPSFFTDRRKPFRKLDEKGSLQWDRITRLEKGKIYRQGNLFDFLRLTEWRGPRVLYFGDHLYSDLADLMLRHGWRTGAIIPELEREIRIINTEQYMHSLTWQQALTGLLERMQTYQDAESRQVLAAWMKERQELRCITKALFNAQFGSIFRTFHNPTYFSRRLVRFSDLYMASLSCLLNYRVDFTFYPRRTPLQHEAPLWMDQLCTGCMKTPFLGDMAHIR
Experiment: IA-DTB cysteine engagement
Assay type: binding
Conditions: 22Rv1 cells, 20 μM probe, 1 h, relative to DMSO
Metric name: % engagement NT5DC2_C504 (%)
Give bare numbers, in %.

# Compound, Assay system, % engagement NT5DC2_C504 / %
measured = [
    ("C=CC(=O)N1C[C@H](c2ccc(Br)cc2)[C@H]1C(=O)Nc1cccc2cccnc12 [MY-3A]", "NT5DC2_C504 (Homo sapiens)", 54.5),
]

Respectfully, I request % engagement NT5DC2_C504 for each entry included below.
1. C=CC(=O)N1C[C@@H](c2ccc(Br)cc2)[C@H]1C(=O)Nc1cccc2cccnc12
2. C=CC(=O)N1C[C@H](c2ccc(Br)cc2)[C@@H]1C(=O)Nc1cccc2cccnc12
3. C=CC(=O)N1C[C@H](c2ccc(Br)cc2)[C@H]1C(=O)Nc1cccc2cccnc12 [MY-3B]

Response:
85.5
75
59

---

Target: SLC25A39_C334 (Homo sapiens)
Construct: endogenous in cells; host or cells: 22Rv1
Sequence (Q9BZJ4 whole entry): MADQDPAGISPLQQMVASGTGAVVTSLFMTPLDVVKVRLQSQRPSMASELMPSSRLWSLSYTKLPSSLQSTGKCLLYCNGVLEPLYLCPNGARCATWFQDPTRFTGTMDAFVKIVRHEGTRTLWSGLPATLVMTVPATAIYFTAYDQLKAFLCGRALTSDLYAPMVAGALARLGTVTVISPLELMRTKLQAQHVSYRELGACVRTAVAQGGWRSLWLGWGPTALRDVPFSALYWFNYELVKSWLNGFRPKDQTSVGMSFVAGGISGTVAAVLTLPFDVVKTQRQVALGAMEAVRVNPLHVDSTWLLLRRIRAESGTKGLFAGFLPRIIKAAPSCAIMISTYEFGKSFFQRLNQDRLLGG
Assay: IA-DTB cysteine engagement
Type: binding
Details: 22Rv1 cells, 20 μM probe, 1 h, relative to DMSO
Kindly state % engagement SLC25A39_C334 for each of the entries shown.
Answers are plain numbers, in %.

# Compound, Assay system, % engagement SLC25A39_C334 / %
records = [
    ("C=CC(=O)N1C[C@H](c2ccc(Br)cc2)[C@H]1C(=O)Nc1cccc2cccnc12 [MY-3A]", "SLC25A39_C334 (Homo sapiens)", 30.5),
    ("C=CC(=O)N1C[C@H](c2ccc(Br)cc2)[C@H]1C(=O)Nc1cccc2cccnc12 [MY-3B]", "SLC25A39_C334 (Homo sapiens)", 72),
]

Respectfully, I request % engagement SLC25A39_C334 for each entry included below.
1. C=CC(=O)N1C[C@H](c2ccc(Br)cc2)[C@@H]1C(=O)Nc1cccc2cccnc12
2. C=CC(=O)N1C[C@@H](c2ccc(Br)cc2)[C@H]1C(=O)Nc1cccc2cccnc12

Response:
1. 45.5
2. 23

---

Kindly state % engagement DCAF1_C1113 for each of the entries shown.
Target: DCAF1_C1113 (Homo sapiens, UniProt Q9Y4B6)
Construct: endogenous in cells; host or cells: 22Rv1
Test: IA-DTB cysteine engagement
Type: binding
Settings: 22Rv1 cells, 20 μM probe, 1 h, relative to DMSO
Procedure: Sample preparation: Cells (adherent: 15 cm dishes, suspension: 2 million cells/mL) were treated with electrophilic probes in situ for indicated times and concentrations, washed with ice-cold PBS, and flash frozen in liquid nitrogen. […] Whole cell lysates protein content was measured using a standard DC protein assay (Bio-Rad) and 500 μL (2 mg/mL protein content) were treated with 5 μL of 10 mM 1A-DTB (in DMSO) for 1 h at ambient temperature with occasional vortexing. […]
One number for each entry, in %.

Examples from the recorded data:
# Compound, Metric name, Observed result
records = [
    ("C=CC(=O)N1C[C@H](c2ccc(Br)cc2)[C@H]1C(=O)Nc1cccc2cccnc12 [MY-3A]", "% engagement DCAF1_C1113", "−1.5"),
    ("C=CC(=O)N1C[C@H](c2ccc(Br)cc2)[C@@H]1C(=O)Nc1cccc2cccnc12 [MY-1B]", "% engagement DCAF1_C1113", 68.5),
    ("C=CC(=O)N1C[C@@H](c2ccc(Br)cc2)[C@H]1C(=O)Nc1cccc2cccnc12 [MY-1A]", "% engagement DCAF1_C1113", "−18"),
]

Let us move to another entry and its % engagement DCAF1_C1113.
Prompt: Query: % engagement DCAF1_C1113; subject: C=CC(=O)N1C[C@H](c2ccc(Br)cc2)[C@H]1C(=O)Nc1cccc2cccnc12 [MY-3B]
Response: 26.5

---

Target: NUP205_C224 (Homo sapiens)
Construct: endogenous in cells; host or cells: 22Rv1
Assay: IA-DTB cysteine engagement
Type: binding
Settings: 22Rv1 cells, 20 μM probe, 1 h, relative to DMSO
Kindly state % engagement NUP205_C224 for each of the entries shown.

# Compound, % engagement NUP205_C224
records = [
    ("C=CC(=O)N1C[C@H](c2ccc(Br)cc2)[C@H]1C(=O)Nc1cccc2cccnc12 [MY-3A]", "100%"),
    ("C=CC(=O)N1C[C@H](c2ccc(Br)cc2)[C@@H]1C(=O)Nc1cccc2cccnc12", "6%"),
    ("C=CC(=O)N1C[C@H](c2ccc(Br)cc2)[C@H]1C(=O)Nc1cccc2cccnc12 [MY-3B]", "30.5%"),
]

Let us move to another entry and its % engagement NUP205_C224.
Prompt: Query: % engagement NUP205_C224; subject: C=CC(=O)N1C[C@@H](c2ccc(Br)cc2)[C@H]1C(=O)Nc1cccc2cccnc12
Response: 28.5%
